These entries and their values trace back to PubChem BioAssay (NCI).

Tested on: MALME-3M melanoma
Experiment: NCI-60 one-dose screen, 48 h (100 = growth as untreated, 0 = no growth, -100 = all killed)
Conditions: 10 µM unless noted
This is part of a sample that, as a whole, favours compounds with a hit. Of some 83,000 tested, about 20% had one in any assay. The source made the active and inactive calls. How the source made its calls: active means growth percent below 10; inactive means the rest.

Item smiles	growth
CC(=O)c1ccc(C(=O)NCC2CCC3(CC2)OOC2(CCCCC2)OO3)cc1	74% (inactive)
COc1ccc2nc(NC(=O)COc3cc(/C=C\c4cc(OC)c(OC)c(OC)c4)ccc3OC)sc2c1	14.1% (inactive)
CCC(=O)Nc1ccc(Cl)c(Cl)c1	102% (inactive)
Fc1ccc(N2COOC3(OOC2)C2CC4CC(C2)CC3C4)cc1	106% (inactive)
CCn1c2ccccc2c2cc(C(=O)c3cccc4c3CCCN4)ccc21	107% (inactive)
CC1=C(CN)C2=C(C)C3(CC3)[C@@](C)(O)C(=O)C2=C1	96.2% (inactive)
